This collection of values is drawn from patent US7118895B2.

system: Crude diglycosidase; experiment: Examination of pH in the conversion into isoflavone aglycons by diglycosidase using soybean materials; assay type: biochemical, Penicillium multicolor IAM7153; conditions: pH5, heat treatment of enzyme no, reaction time 1 h, 55° C.
Value Kind: Decomposition efficiency of glycitin family in roasted soy flour

| Compound Smiles | Obs Value |
| --- | --- |
| COc1cc2c(=O)c(-c3ccc(O)cc3)coc2cc1O | 77.1 |
| COc1cc2c(=O)c(-c3ccc(O)cc3)coc2cc1O[C@@H]1O[C@H](COC(C)=O)[C@@H](O)[C@H](O)[C@H]1O | 22.9 |

* * *

test system: Crude diglycosidase; assay: Examination of substrate concentration in the conversion into isoflavone aglycons by diglycosidase using soybean materials; assay type: biochemical, Penicillium multicolor IAM7153; details: soymilk, substrate concentration 10%, heat treatment of enzyme no, reaction time 1 h;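 also: percent of the isoflavone family total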
Value Kind: Decomposition efficiency: ratio of each glycoside/aglycon within its isoflavone family

| Compound Smiles | Obs Value |
| --- | --- |
| CC(=O)OC[C@H]1O[C@@H](Oc2cc(O)c3c(=O)c(-c4ccc(O)cc4)coc3c2)[C@H](O)[C@@H](O)[C@@H]1O | not detected |
| O=c1c(-c2ccc(O)cc2)coc2cc(O[C@@H]3O[C@H](CO)[C@@H](O)[C@H](O)[C@H]3O)cc(O)c12 | not detected |
| O=C(O)CC(=O)OC[C@H]1O[C@@H](Oc2ccc3c(=O)c(-c4ccc(O)cc4)coc3c2)[C@H](O)[C@@H](O)[C@@H]1O | 37.4% |
| CC(=O)OC[C@H]1O[C@@H](Oc2ccc3c(=O)c(-c4ccc(O)cc4)coc3c2)[C@H](O)[C@@H](O)[C@@H]1O | not detected |
| O=c1c(-c2ccc(O)cc2)coc2cc(O[C@@H]3O[C@H](CO)[C@@H](O)[C@H](O)[C@H]3O)ccc12 | not detected |
| COc1cc2c(=O)c(-c3ccc(O)cc3)coc2cc1O[C@@H]1O[C@H](COC(C)=O)[C@@H](O)[C@H](O)[C@H]1O | not detected |

* * *

# reported Decomposition efficiency of daidzin family in defatted soybean; entries follow
system: Crude diglycosidase; test: Examination of pH in the conversion into isoflavone aglycons by diglycosidase using soybean materials; format: biochemical, Penicillium multicolor IAM7153; parameters: concentration or dose not given beside the values; settings: pH2.6; heat treatment of enzyme: no; reaction time 3 h
Value Kind: Decomposition efficiency of daidzin family in defatted soybean (%)

| Compound Smiles | U | Obs Value |
| --- | --- | --- |
| O=c1c(-c2ccc(O)cc2)coc2cc(O)ccc12 | % | 40.9 |
| O=C(O)CC(=O)OC[C@H]1O[C@@H](Oc2ccc3c(=O)c(-c4ccc(O)cc4)coc3c2)[C@H](O)[C@@H](O)[C@@H]1O | % | 41.8 |
| O=c1c(-c2ccc(O)cc2)coc2cc(O[C@@H]3O[C@H](CO)[C@@H](O)[C@H](O)[C@H]3O)ccc12 | % | 17.3 |

* * *

System: Crude diglycosidase
Assay: Examination of temperature in the conversion into isoflavone aglycons by diglycosidase using soybean materials
Type: biochemical, Penicillium multicolor IAM7153
Set-up: concentration or dose not given beside the values
Settings: 45 °C; heat treatment of enzyme: no; 1 h
Protocol: Into 400 μL of 20 mM acetate buffer of pH 4.0 was suspended 50 mg of each of various soybean materials (roasted soy flour (manufactured by Fuji Shokuryo K.K.), soymilk (manufactured by Gitoh Shokuhin K.K.), defatted soybean (manufactured by Fuji Seiyu K.K.), concentrated soybean protein (manufactured by Fuji Seiyu K.K.)), whereby a substrate solution was prepared. Crude diglycosidase was diluted with 20 mM acetate buffer of pH 4.0 to be the glycosidase activity of 1.88 AU/mL. […]
Value Kind: Decomposition efficiency of glycitin family in roasted soy flour (%)

| Compound Smiles | Obs Value |
| --- | --- |
| COc1cc2c(=O)c(-c3ccc(O)cc3)coc2cc1O[C@@H]1O[C@H](COC(C)=O)[C@@H](O)[C@H](O)[C@H]1O | 27.4 |
| COc1cc2c(=O)c(-c3ccc(O)cc3)coc2cc1O[C@@H]1O[C@H](CO)[C@@H](O)[C@H](O)[C@H]1O | 12.4 |
| COc1cc2c(=O)c(-c3ccc(O)cc3)coc2cc1O | 60.2 |
